System: isolated rat adipocytes
Experiment: Hexose transport (2-deoxyglucose uptake) in isolated rat adipocytes
Format: cell-based
Settings: 45 min preincubation of fat cells with increasing concentrations; 5-min 2-DG uptake; FIG. 1
Method: Adipocyte isolation. […] Adipose cells isolated in such a way were used in subsequent studies. Hexose transport. After a preincubation period of 45 min at 37° C. in vials containing 400 μl of cell suspension in KRBH with the tested products, [^3H]-2-deoxyglucose was added at a final concentration of 0.1 mM (approx. 1,300,000 d.p.m./vial). […] After centrifugation, the fat cells (upper part of the tubes) were placed in scintillation vials and the incorporated radioactivity was counted.

[
  {
    "MOLECULE": "NCCc1c[nH]c2ccc(O)cc12 [serotonin]",
    "glucose transport (2-DG uptake)": "not activated"
  },
  {
    "MOLECULE": "CNC[C@H](O)c1cccc(O)c1 [phenylephrine]",
    "glucose transport (2-DG uptake)": "not activated"
  },
  {
    "MOLECULE": "NCCc1ccc(O)cc1 [tyramine]",
    "glucose transport (2-DG uptake)": "not activated"
  }
]
